TARGET: PI3K delta (Homo sapiens)
Construct: for the full-length p110-d subunit are generated and fused by overlapping PCR; p85(iSH2) fusion partner (same polypeptide; see partner chain) (N); Gly linker (N); His tag (C); Tn5 (Trichoplusia ni) or TiniPro insect cells
Sequence (O00329 with tags, fused parts or gaps limits assumed): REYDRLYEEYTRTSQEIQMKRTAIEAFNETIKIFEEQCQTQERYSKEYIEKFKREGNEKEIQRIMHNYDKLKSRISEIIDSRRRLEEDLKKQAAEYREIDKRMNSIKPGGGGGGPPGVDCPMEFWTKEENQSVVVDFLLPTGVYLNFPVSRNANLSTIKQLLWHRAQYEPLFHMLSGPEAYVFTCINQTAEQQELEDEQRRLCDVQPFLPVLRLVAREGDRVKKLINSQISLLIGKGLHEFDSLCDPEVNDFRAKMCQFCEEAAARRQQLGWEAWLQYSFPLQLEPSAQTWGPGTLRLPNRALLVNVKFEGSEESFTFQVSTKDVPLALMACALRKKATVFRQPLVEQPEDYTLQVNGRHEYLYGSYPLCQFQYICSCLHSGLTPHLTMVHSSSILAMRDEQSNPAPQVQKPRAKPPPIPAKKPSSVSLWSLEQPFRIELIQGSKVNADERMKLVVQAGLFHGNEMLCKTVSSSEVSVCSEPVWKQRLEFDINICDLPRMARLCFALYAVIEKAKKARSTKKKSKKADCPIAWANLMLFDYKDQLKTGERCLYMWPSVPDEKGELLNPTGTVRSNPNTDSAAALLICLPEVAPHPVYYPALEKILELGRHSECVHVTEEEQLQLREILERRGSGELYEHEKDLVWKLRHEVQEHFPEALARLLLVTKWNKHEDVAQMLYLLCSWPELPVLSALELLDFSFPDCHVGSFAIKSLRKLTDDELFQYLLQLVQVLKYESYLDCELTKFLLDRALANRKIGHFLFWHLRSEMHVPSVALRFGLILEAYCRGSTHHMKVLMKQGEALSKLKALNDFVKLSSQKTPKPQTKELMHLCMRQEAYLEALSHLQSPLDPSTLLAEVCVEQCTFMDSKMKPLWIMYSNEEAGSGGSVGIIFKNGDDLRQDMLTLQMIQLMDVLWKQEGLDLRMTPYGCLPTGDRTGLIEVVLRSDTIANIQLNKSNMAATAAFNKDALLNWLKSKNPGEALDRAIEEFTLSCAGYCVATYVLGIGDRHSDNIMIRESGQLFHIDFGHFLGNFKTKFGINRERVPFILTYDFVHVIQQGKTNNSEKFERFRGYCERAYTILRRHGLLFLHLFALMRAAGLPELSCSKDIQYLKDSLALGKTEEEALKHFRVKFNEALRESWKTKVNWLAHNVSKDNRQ
EXPERIMENT_NOTES: PI3K delta enzymatic assay (Kinase-Glo luminescence)
ASSAY_CONTEXT: Enzymatic Data
PROPERTY: IC50 (nM)

See these solved cases before continuing.
line_notation=Cc1nc2ccc(-c3ccc(OCCCN4CCCC4=O)cc3)nn2c1-c1ccc(S(C)(=O)=O)cc1 target="PI3K delta (Homo sapiens)" property=IC50 unit_spec=nM recorded_number=1040
line_notation=COc1cc(-c2ccc3nc(C)c(-c4cnc(N)c(C(F)(F)F)c4)n3n2)ccc1OCCN target="PI3K delta (Homo sapiens)" property=IC50 unit_spec=nM recorded_number=52

A: COc1ccc(-c2ccc3nc(C)c(-c4ccc(N5CCNCC5)nc4)n3n2)cc1OC
B: COc1ccc(-c2ccc3nc(C)c(-c4ccc(F)nc4)n3n2)cc1OC
Determine, for A and B , which has the greater value of IC50. // output: label of the selected item
A
(A: 2390 nM, B: 1350 nM)

Origin of the recorded values: patent US20100305113A1
